Reference source: patent US20040253247A1

Measured pEC50 by item
targetOfAssay: T1, IgG-Fc (UniProt P01857-1 108-330 = IgG part, limits assumed)
T1 construct: domain: IgG-Fc; also called biotinylated-IgG-Fc; biotin-IgG-Fc
experimentSummary: phage ELISA, M13/gIII display
pEC50: −log10 of the molar value.
observable: pEC50

INSERT INTO assay_data (binder, measuredresult) VALUES
  ('GEADCSYHLGELVWCNDFEE (M13/gIII phage display; Secondary Optimization) [phage clone GEADCSYHLGELVWCNDFEE]', 6.81),
  ('GEEDCSYHLGELVMCTELDD (M13/gIII phage display; Secondary Optimization) [phage clone GEEDCSYHLGELVMCTELDD]', 7.16),
  ('EEASCAYHLGELVWCDAFDV (M13/gIII phage display; Secondary Optimization) [phage clone EEASCAYHLGELVWCDAFDV]', 7.11),
  ('WVEDCSWHMGELVWCDGGEF (M13/gIII phage display; Focused Libraries) [phage clone WVEDCSWHMGELVWCDGGEF]', 6.86),
  ('KEADCAWHMGELVWCSEMEG (M13/gIII phage display; Secondary Optimization) [phage clone KEADCAWHMGELVWCSEMEG]', 7.18);
